Provenance of the data: ChEMBL document CHEMBL4311944

Measured IC50 by item
molecular target: Phosphatidylinositol 4,5-bisphosphate 3-kinase catalytic subunit delta isoform (Homo sapiens); assay: Inhibition of PI3Kdelta (unknown origin) using PIP2 as substrate preincubated for 15 mins followed by substrate addition and measured after 1 hr by HTRF assay
observed_property: IC50

> print(dat)
                                smiles.code  observed.property   result
1  CCNC(=O)Nc1ccc(-c2nc(C(C)(C)S(C)(=O)=O)cc([C@]34CCOC[C@H]3C4)n2)cc1               IC50  25.1 µM
2  CCNC(=O)Nc1ccc(-c2nc(CS(C)(=O)=O)cc([C@]34CCOC[C@H]3C4)n2)cc1               IC50  7.94 µM
3       C[C@H]1COCCN1c1ccnc(-c2cccc(O)c2)n1               IC50     1 µM
4  CNCC(=O)Nc1ccc(-c2nc(CS(C)(=O)=O)cc(N3CCOC[C@@H]3C)n2)cc1               IC50  12.6 µM

* * *

// reported IC50 per item
Biological target: Phosphatidylinositol 4,5-bisphosphate 3-kinase catalytic subunit delta isoform (Homo sapiens, UniProt O00329)
Sequence (O00329 whole entry): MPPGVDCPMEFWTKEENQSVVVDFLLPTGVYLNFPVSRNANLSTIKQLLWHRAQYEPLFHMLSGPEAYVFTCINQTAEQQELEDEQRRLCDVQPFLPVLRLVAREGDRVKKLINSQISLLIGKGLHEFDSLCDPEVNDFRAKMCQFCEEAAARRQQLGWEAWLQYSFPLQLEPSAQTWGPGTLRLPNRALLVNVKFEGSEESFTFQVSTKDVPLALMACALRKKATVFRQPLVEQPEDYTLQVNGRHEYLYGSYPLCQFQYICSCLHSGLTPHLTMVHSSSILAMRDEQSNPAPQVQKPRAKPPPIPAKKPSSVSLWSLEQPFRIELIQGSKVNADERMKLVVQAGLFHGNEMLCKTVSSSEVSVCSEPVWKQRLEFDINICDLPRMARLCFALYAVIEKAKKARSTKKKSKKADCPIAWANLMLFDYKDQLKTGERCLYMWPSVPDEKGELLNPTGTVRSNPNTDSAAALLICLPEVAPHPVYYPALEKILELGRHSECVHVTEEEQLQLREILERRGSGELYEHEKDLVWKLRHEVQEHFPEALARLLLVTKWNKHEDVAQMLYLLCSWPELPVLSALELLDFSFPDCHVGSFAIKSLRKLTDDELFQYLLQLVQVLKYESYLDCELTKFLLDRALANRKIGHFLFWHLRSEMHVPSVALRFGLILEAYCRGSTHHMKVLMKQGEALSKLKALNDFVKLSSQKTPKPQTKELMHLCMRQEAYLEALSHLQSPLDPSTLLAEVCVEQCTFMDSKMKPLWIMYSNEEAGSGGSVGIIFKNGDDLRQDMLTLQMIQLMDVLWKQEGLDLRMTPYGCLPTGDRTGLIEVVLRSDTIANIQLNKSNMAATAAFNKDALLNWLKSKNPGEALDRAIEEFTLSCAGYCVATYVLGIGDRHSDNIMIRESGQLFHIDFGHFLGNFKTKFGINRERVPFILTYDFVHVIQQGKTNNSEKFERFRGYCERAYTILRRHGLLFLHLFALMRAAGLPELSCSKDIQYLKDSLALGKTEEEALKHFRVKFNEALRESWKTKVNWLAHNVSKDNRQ
Test: Inhibition of PI3Kdelta (unknown origin) using PIP2 as substrate preincubated for 15 mins followed by substrate addition and measured after 1 hr by HTRF assay
observed_property: IC50 (µM)

> print(dat)
                                smiles.code  unit.of.measure  numeric.readout
1  CS(=O)(=O)Cc1cc([C@@]23CCOC[C@@H]2C3)nc(-c2cccc(O)c2)n1               µM             3.98
2  CCNC(=O)Nc1ccc(-c2nccc([C@@]34CCOC[C@@H]3C4)n2)cc1               µM             25.1
3  CC(C)(c1cc([C@@]23CCOC[C@@H]2C3)nc(-c2cccc(O)c2)n1)S(C)(=O)=O               µM             7.94
4  CNCC(=O)Nc1ccc(-c2nc(C(C)(C)S(C)(=O)=O)cc([C@@]34CCOC[C@@H]3C4)n2)cc1               µM             1.26
5   CCNC(=O)Nc1ccc(-c2nccc(C3=CCOCC3)n2)cc1               µM             15.8
